Each recorded value in this set is attributed to patent US11512042B2.

Listed molecules paired with reported ε
# method.description: UV absorbance spectrum in solution (λmax, λcrit, extinction coefficients)
# Format: physicochemical
# run.conditions: molar extinction coefficient; in M-1 cm-1 (unit assumed)
readout.type: ε

> print(dat)
                                   molecule  readout.type  reported.value
1  CCN(CC)C(=O)C(=O)/C(=C/N1CCc2cc(C(=O)OC)ccc21)c1ccccc1 [Compound 290]             ε           51191
2  O=C(/C(=C\N1CCCCc2ccccc21)c1ccccc1)C(F)(F)F [Compound 217]             ε           29114
3  CCN(/C=C(\C(=O)C(F)(F)F)c1ccccc1)c1cccc(C)c1 [Compound 186]             ε           23605
4  CCN(/C=C(/C(=O)c1ccccc1)c1ccccc1)c1ccccc1 [Compound 245]             ε           20292
5  O=C(/C(=C/N1CCc2ccccc21)c1ccccc1)c1ccccc1 [Compound 243]             ε           29026
6  Cc1cc(C)c(C(=O)/C(=C/N(c2ccccc2)c2ccccc2)c2ccccc2)c(C)c1 [Compound 254]             ε           27592
7  CC(C)(C)C(=O)/C(=C/N(c1ccccc1)c1ccccc1)c1ccccc1 [Compound 294]             ε           17462
8  CCN(/C=C(\C(=O)C(F)(F)F)c1ccccc1)c1cccc2ccccc12 [Compound 189]             ε           23400
9  O=C(/C(=C\N1CCc2cc(Br)ccc21)c1ccccc1)C(F)(F)F [Compound 214]             ε           39265
